The values you see were collected from the RNAGym collection of RNA variant scans (doi:10.7554/elife.80360).

B1: HDV Ribozyme (parent)
chain: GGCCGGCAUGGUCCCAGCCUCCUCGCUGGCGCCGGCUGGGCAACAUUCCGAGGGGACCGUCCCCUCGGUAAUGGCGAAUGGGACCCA

Variants of: B1
Assay: self-cleavage, relative activity (ratio to wild type); higher = more cleavage; co-transcriptional
Classification by self-cleavage follows these ranges: low band = under 0.3, middle band = from 0.3 up to 0.7, high band = 0.7 and over

Illustrative cases are given below, each with its answer.
[
  {
    "Sequence Variant": "C18U G68A",
    "Discrete Label": "high band"
  },
  {
    "Sequence Variant": "C33U C44G",
    "Discrete Label": "middle band"
  },
  {
    "Sequence Variant": "G52C C86A",
    "Discrete Label": "high band"
  },
  {
    "Sequence Variant": "C21A C66A",
    "Discrete Label": "low band"
  },
  {
    "Sequence Variant": "U60A C64A",
    "Discrete Label": "high band"
  },
  {
    "Sequence Variant": "C4U U60G",
    "Discrete Label": "high band"
  },
  {
    "Sequence Variant": "A45U A87C",
    "Discrete Label": "high band"
  },
  {
    "Sequence Variant": "C15G G55U",
    "Discrete Label": "middle band"
  }
]

Task: Where would C22G C86U land among the classes by reported self-cleavage?
Result: low band
